Measured values drawn from ChEMBL document CHEMBL3885861 for this set.

Kindly state K for each of the entries shown.
- Organism: Rattus norvegicus
- assay.method.text: Open TG-GATES - Regimen: Single
- Type: toxicity, organism-based, Sprague-Dawley
- Design: regimen Single, gender Male, age 6 weeks
- test.parameters: in vivo, po, 30 mg/kg, 9 h, tissue Plasma, route gavage, dose level Middle
Supply the numeric figure in meq/L, leaving out any unit text.

Which K value belongs to CN(C)CCCN1c2ccccc2CCc2ccccc21 [IMIPRAMINE] ?
4.1

// lookup K for CC1=C(/C=C/C(C)=C/C=C/C(C)=C/CO)C(C)(C)CCC1 [RETINOL]
4.2

Which K value is on record for "CN(C)CCN(Cc1cccs1)c1ccccn1" ?
4.5

# lookup: K of CN(C)CCCN1c2ccccc2CCc2ccc(Cl)cc21 [CLOMIPRAMINE]
4.1

* * *

Field: Plat. Provide a value for each of the molecules that follow.
- Species on record: Rattus norvegicus
- assay.method.text: Open TG-GATES - Regimen: Single
- Assay type: toxicity, organism-based, Sprague-Dawley
- Set-up: regimen Single, gender Male, age 6 weeks
- test.parameters: in vivo, po, 1000 mg/kg, 9 h, tissue Blood, route gavage, dose level High

Which Plat is reported for this molecule? CCOC(=O)CCC(=O)O[C@H]1[C@H](O[C@@H]2[C@@H](C)[C@H](O[C@H]3C[C@@](C)(OC)[C@@H](O)[C@H](C)O3)[C@@H](C)C(=O)O[C@H](CC)[C@@](C)(O)[C@H](O)[C@@H](C)C(=O)[C@H](C)C[C@@]2(C)O)O[C@H](C)C[C@@H]1N(C)C [ERYTHROMYCIN ETHYLSUCCINATE]
121.3 x10_4/uL

Report Plat for "NC(N)=Nc1nc(CSCCC(N)=NS(N)(=O)=O)cs1" please.
112.4 x10_4/uL

So what does the record say about Plat for COc1ccc2[nH]c([S+]([O-])Cc3ncc(C)c(OC)c3C)nc2c1 (centres undefined) ?
120.2 x10_4/uL

For "COC1=CC(=O)C[C@@H](C)[C@]12Oc1c(Cl)c(OC)cc(OC)c1C2=O" , what is its reported Plat?
113.3 x10_4/uL

* * *

- Species on record: Rattus norvegicus
- assay.method.text: Open TG-GATES - Regimen: Daily Repeat
- Format: toxicity, organism-based, Sprague-Dawley
- Parameters: regimen Daily Repeat, gender Male, age 6 weeks
- test.parameters: in vivo, po, 100 mg/kg, […], tissue Plasma, route gavage, dose level Low, time 7 day
recorded.metric: Ca (mg/dL)
State the answer as a number, implicitly in mg/dL.

Bench note: what Ca did CCOC(=O)CCC(=O)O[C@H]1[C@H](O[C@@H]2[C@@H](C)[C@H](O[C@H]3C[C@@](C)(OC)[C@@H](O)[C@H](C)O3)[C@@H](C)C(=O)O[C@H](CC)[C@@](C)(O)[C@H](O)[C@@H](C)C(=O)[C@H](C)C[C@@]2(C)O)O[C@H](C)C[C@@H]1N(C)C [ERYTHROMYCIN ETHYLSUCCINATE] show?
10.5

Value lookup for Ca; key = CCOc1ccc(NC(=O)CC(C)O)cc1 (stereo not given)
11

Param item = "COC1=CC(=O)C[C@@H](C)[C@]12Oc1c(Cl)c(OC)cc(OC)c1C2=O" ; retrieve measured Ca.
10.7

Form field: reported Ca of "NC(N)=Nc1nc(CSCCC(N)=NS(N)(=O)=O)cs1"
10.7

Quick check: Ca of COc1ccc2[nH]c([S+]([O-])Cc3ncc(C)c(OC)c3C)nc2c1 (stereo not given) ?
10.6

* * *

- Species: Rattus norvegicus
- assay.method.text: Open TG-GATES - Regimen: Single
- Format: toxicity, organism-based, Sprague-Dawley
- Design: regimen Single, gender Male, age 6 weeks
- test.parameters: in vivo, po, 100 mg/kg, 9 h, tissue Plasma, route gavage, dose level Low
For each entry below, report its RALB value.
The answer is to be given in g/dL; state only the numeric part.

RALB lookup needed for NC(N)=Nc1nc(CSCCC(N)=NS(N)(=O)=O)cs1 [FAMOTIDINE] , thanks.
3.4

// returns reported RALB for input COC1=CC(=O)C[C@@H](C)[C@]12Oc1c(Cl)c(OC)cc(OC)c1C2=O [GRISEOFULVIN]
3.4

Please look up its RALB: CCOC(=O)CCC(=O)O[C@H]1[C@H](O[C@@H]2[C@@H](C)[C@H](O[C@H]3C[C@@](C)(OC)[C@@H](O)[C@H](C)O3)[C@@H](C)C(=O)O[C@H](CC)[C@@](C)(O)[C@H](O)[C@@H](C)C(=O)[C@H](C)C[C@@]2(C)O)O[C@H](C)C[C@@H]1N(C)C [ERYTHROMYCIN ETHYLSUCCINATE]
3

Would you kindly share the measured RALB for COc1ccc2[nH]c([S+]([O-])Cc3ncc(C)c(OC)c3C)nc2c1 (centres undefined) [OMEPRAZOLE] ?
3.3

* * *

- Species: Rattus norvegicus
- assay.method.text: Open TG-GATES - Regimen: Single
- Type: toxicity, organism-based, Sprague-Dawley
- Set-up: regimen Single, gender Male, age 6 weeks
- test.parameters: in vivo, po, 0 mg/kg, 24 h, tissue Blood, route gavage, dose level Control
recorded.metric: MCHC (%)
Respond with the bare value in %.

Param item = COc1ccc2[nH]c([S+]([O-])Cc3ncc(C)c(OC)c3C)nc2c1 (stereo not given) ; retrieve measured MCHC.
34.1

May I ask what MCHC has been recorded for "CN(C)CCCN1c2ccccc2CCc2ccc(Cl)cc21" ?
32.4

Report MCHC for "C[C@@H]1C[C@H]2[C@@H]3CCC4=CC(=O)C=C[C@]4(C)[C@@]3(F)[C@@H](O)C[C@]2(C)[C@@]1(O)C(=O)CO" please.
33

Look up MCHC for this compound: "Cc1ccc(C)c(OCCCC(C)(C)C(=O)O)c1"
34.7

Returns the measured MCHC for the input compound. Input: "CN(C)CCCN1c2ccccc2CCc2ccccc21"
32.1

# get_value(readout='MCHC', item= "O=C(CCCN1CCC(O)(c2ccc(Cl)cc2)CC1)c1ccc(F)cc1" )
33.9

Given the entry CC(C)OC(=O)C(C)(C)Oc1ccc(C(=O)c2ccc(Cl)cc2)cc1 [FENOFIBRATE] , report its measured MCHC.
32.7

Fill blank: measured MCHC of the compound "CC/C(=C(\c1ccccc1)c1ccc(OCCN(C)C)cc1)c1ccccc1" is ____.
33.5

MCHC for CCCNC(=O)NS(=O)(=O)c1ccc(Cl)cc1 [CHLORPROPAMIDE] ?
32.2

Requested field: MCHC. Item: "NC(N)=Nc1nc(CSCCC(N)=NS(N)(=O)=O)cs1"
35.7

* * *

- Species: Rattus norvegicus
- assay.method.text: Open TG-GATES - Regimen: Single
- Format: toxicity, organism-based, Sprague-Dawley
- Set-up: regimen Single, gender Male, age 6 weeks
- test.parameters: in vivo, po, 300 mg/kg, 6 h, tissue Plasma, route gavage, dose level Middle
recorded.metric: Ca (mg/dL)
State just the number; it will be interpreted in mg/dL.

Recorded Ca of COc1ccc2[nH]c([S+]([O-])Cc3ncc(C)c(OC)c3C)nc2c1 (centres undefined) , please.
10.3

Any idea what Ca was measured for "NC(N)=Nc1nc(CSCCC(N)=NS(N)(=O)=O)cs1" ?
10.4

# query: Ca of entry "COC1=CC(=O)C[C@@H](C)[C@]12Oc1c(Cl)c(OC)cc(OC)c1C2=O"
10.8

// returns reported Ca for input CCOC(=O)CCC(=O)O[C@H]1[C@H](O[C@@H]2[C@@H](C)[C@H](O[C@H]3C[C@@](C)(OC)[C@@H](O)[C@H](C)O3)[C@@H](C)C(=O)O[C@H](CC)[C@@](C)(O)[C@H](O)[C@@H](C)C(=O)[C@H](C)C[C@@]2(C)O)O[C@H](C)C[C@@H]1N(C)C [ERYTHROMYCIN ETHYLSUCCINATE]
10.6

* * *

- Organism: Rattus norvegicus
- assay.method.text: Open TG-GATES - Regimen: Single
- Format: toxicity, organism-based, Sprague-Dawley
- Set-up: regimen Single, gender Male, age 6 weeks
- test.parameters: in vivo, po, 100 mg/kg, 3 h, tissue Plasma, route gavage, dose level Low
Give measured TBIL for each item. Keep answers brief.
Write the value in mg/dL as a bare number.

Give its TBIL value. Item: NC(N)=Nc1nc(CSCCC(N)=NS(N)(=O)=O)cs1 [FAMOTIDINE]
0.1

Name the recorded TBIL for CCOC(=O)CCC(=O)O[C@H]1[C@H](O[C@@H]2[C@@H](C)[C@H](O[C@H]3C[C@@](C)(OC)[C@@H](O)[C@H](C)O3)[C@@H](C)C(=O)O[C@H](CC)[C@@](C)(O)[C@H](O)[C@@H](C)C(=O)[C@H](C)C[C@@]2(C)O)O[C@H](C)C[C@@H]1N(C)C [ERYTHROMYCIN ETHYLSUCCINATE] .
0.02

Query: TBIL; subject: COc1ccc2[nH]c([S+]([O-])Cc3ncc(C)c(OC)c3C)nc2c1 (centres undefined) [OMEPRAZOLE]
0.1

Requested field: TBIL. Item: COC1=CC(=O)C[C@@H](C)[C@]12Oc1c(Cl)c(OC)cc(OC)c1C2=O [GRISEOFULVIN]
0.3
